Reported values of CC50 for individual entries
Assay type: cell-based
Conditions: MTS assay, cells treated 24 h; concentration causing 50% cell death; read-out: LC50 MCF7 (breast cancer)
Square brackets hold non-standard residues; d marks the D form. Peptide text beside a SMILES is read from it. Nspe = C[C@H](NCC(=O)O)c1ccccc1; Nphe = O=C(O)CNCc1ccccc1; Nlys = NCCCCNCC(=O)O
Just the number in µM, nothing appended.

A selection of reference data follows.
// Input: C[C@@H](c1ccccc1)N(CC(N)=O)C(=O)CN(C(=O)CN(CCCCN)C(=O)CN(C(=O)CN(C(=O)CN(CCCCN)C(=O)CN(C(=O)CN(C(=O)CN(CCCCN)C(=O)CN(C(=O)CN(C(=O)CNCCCCN)[C@@H](C)c1ccccc1)[C@@H](C)c1ccccc1)[C@@H](C)c1ccccc1)[C@@H](C)c1ccccc1)[C@@H](C)c1ccccc1)[C@@H](C)c1ccccc1)[C@@H](C)c1ccccc1 [Peptoid 1, H-(NLys-Nspe-Nspe)4-NH2] (H-[Nlys][Nspe][Nspe][Nlys][Nspe][Nspe][Nlys][Nspe][Nspe][Nlys][Nspe][Nspe]-NH2) . Output its CC50 only.
4.5

// Input: C[C@@H](c1ccccc1)N(CC(N)=O)C(=O)CN(CCCCN)C(=O)CN(C(=O)CN(C(=O)CN(CCCCN)C(=O)CN(C(=O)CN(C(=O)CN(CCCCN)C(=O)CN(C(=O)CN(C(=O)CNCCCCN)[C@@H](C)c1ccccc1)[C@@H](C)c1ccccc1)[C@@H](C)c1ccccc1)[C@@H](C)c1ccccc1)[C@@H](C)c1ccccc1)[C@@H](C)c1ccccc1 [Peptoid 111mer, H-(NLys-Nspe-Nspe)3-NLys-Nspe-NH2] (H-[Nlys][Nspe][Nspe][Nlys][Nspe][Nspe][Nlys][Nspe][Nspe][Nlys][Nspe]-NH2) . Output its CC50 only.
9

// Input: C[C@@H](c1ccccc1)N(CC(=O)N(CC(=O)N(CCCCN)CC(=O)N(CC(=O)N(CC(=O)N(CCCCN)CC(=O)N(CC(=O)N(CC(=O)N(CCCCN)CC(=O)N(CC(=O)N(CC(N)=O)Cc1ccccc1)Cc1ccccc1)Cc1ccccc1)Cc1ccccc1)Cc1ccccc1)Cc1ccccc1)Cc1ccccc1)C(=O)CNCCCCN [1achiral-Nspe 2, H-NLys-Nspe-Npm-(NLys-Npm-Npm)3-NH2] (H-[Nlys][Nspe][Nphe][Nlys][Nphe][Nphe][Nlys][Nphe][Nphe][Nlys][Nphe][Nphe]-NH2) . Output its CC50 only.
14.5

# next compound below
// Input: `C[C@@H](c1ccccc1)N(CC(N)=O)C(=O)CN(C(=O)CN(CCCCN)C(=O)CN(Cc1ccccc1)C(=O)CN(Cc1ccccc1)C(=O)CN(CCCCN)C(=O)CN(C(=O)CN(C(=O)CN(CCCCN)C(=O)CN(Cc1ccccc1)C(=O)CN(Cc1ccccc1)C(=O)CNCCCCN)[C@@H](C)c1ccccc1)[C@@H](C)c1ccccc1)[C@@H](C)c1ccccc1` . Output its CC50 only.
10
